- METHOD SUMMARY: qHTS assay for small molecule activators of the heat shock response signaling pathway (AID 743210);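 note: HeLa cells with beta-lactamase reporter driven by heat shock elements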
- EXPERIMENTAL PARAMETERS: HeLa HSE-bla reporter, beta-lactamase ratio, 5 h; series mostly up to 62.6 µM
Records with an inconclusive call do not appear. Calls of active or inactive are those of the source. Calls come from the whole dose curve; as a rule, active = well fitted activation curve with a large enough effect in the signal ratio in the repeat runs, with a control signal flat (not every such curve was filed as active); inconclusive = weak or mixed curves; inactive = flat fitted curve, though single readings scatter; the % refers to the signal ratio.
OBSERVABLE: outcome

1) Cc1cn([C@H]2C[C@H](N=[N+]=[N-])[C@@H](CO)O2)c(=O)[nH]c1=O ... inactive
2) COc1ccc2[nH]cc(CCNC(C)=O)c2c1 ... inactive
3) Cc1ccc(O)cc1 ... inactive

====

- TARGET ENTITY: Cytochrome P450 3A4 (Homo sapiens)
- METHOD SUMMARY: Cytochrome P450 Family 3 Subfamily A Member 4 (CYP3A4) small molecule antagonists: luciferase reporter qHTS assay (AID 1671201); note: nearly all actives have a fitted effect of over 50% in size
- EXPERIMENTAL PARAMETERS: P450-Glo CYP3A4 enzyme, luciferin luminescence, 1 h; series mostly up to 115 µM
Results filed as inconclusive are left out. The source made the active and inactive calls. Calls come from the whole dose curve; as a rule, active = well fitted inhibition curve with a large enough effect in the repeat runs; inconclusive = weak or mixed curves; inactive = no such curve, though single readings can be large or run the other way.
OBSERVABLE: outcome

Look over these answered cases.
1. O=c1cc[nH]c(=S)[nH]1 ... inactive
2. CCOc1ccc(NC(=O)CC(C)O)cc1 (centres undefined) ... inactive
3. O=C(O)C(=O)O ... inactive
4. CC1(C)[C@@H]2CC[C@@]1(C)C(=O)C2 ... inactive
5. COc1ccc2[nH]cc(CCNC(C)=O)c2c1 ... inactive

Now look at this entry.
// returns reported outcome for input O=C(c1ccccc1)C(O)c1ccccc1 (centres undefined)
inactive

====

- METHOD SUMMARY: qHTS assay for identifying genotoxic compounds that show differential cytotoxicity against isogenic chicken DT40 cell lines with known DNA damage response pathways - wild type cell line (AID 743012); note: nearly all actives have a fitted effect of over 60% in size
- EXPERIMENTAL PARAMETERS: DT40 wild type chicken cells viability, CellTiter-Glo, 40 h; series mostly up to 68.4 µM
- Text: U.S. Tox21 Program National Center for Advancing Translational Sciences [NCATS] NIH Chemical Genomics Center [NCGC] U.S. Environmental Protection Agency [EPA] National Institutes of Environmental Health Sciences [NIEHS] National Toxicology Program [NTP] U.S. Food and Drug Administration [FDA] Tox21 Assay Overview: DNA repair pathways play a critical role in cellular homeostasis by repairing DNA damage induced by endogenous processes and xenobiotics. […]
Inconclusive results are not listed. Calls of active or inactive are those of the source. Calls come from the whole dose curve; as a rule, active = well fitted cell-killing curve with a large enough effect in the repeat runs; inconclusive = weak or mixed curves, or effect the other way; inactive = no such curve, though single readings can be large or run the other way. Residues, ends and D or L forms follow the SMILES beside them.
Tick one outcome: active, inactive

// outcome(item) with item = Cc1noc(NS(=O)(=O)c2ccc(N)cc2)c1C
inactive

// outcome(item) with item = C[C@]12C=CC(=O)C=C1CC[C@@H]1[C@@H]2[C@@H](O)C[C@@]2(C)[C@H]1CC[C@]2(O)C(=O)CO
inactive

// outcome(item) with item = O=C(c1ccccc1)C(O)c1ccccc1 (stereo not drawn)
inactive

// outcome(item) with item = CC(=O)OCC(COC(C)=O)OC(C)=O
inactive

// outcome(item) with item = O=S(=O)(O)NC1CCCCC1
inactive

// outcome(item) with item = Cc1ccc(C)c(OCCCC(C)(C)C(=O)O)c1
inactive

// outcome(item) with item = CCCC(O)C(CC)CO (stereo not drawn)
inactive

// outcome(item) with item = O=S(=O)(O)c1ccc2cc(O)ccc2c1
inactive

// outcome(item) with item = O=C(O)c1cc(N=Nc2ccc(S(=O)(=O)Nc3ccccn3)cc2)ccc1O
inactive

// outcome(item) with item = CCCCC(CC)COC(=O)/C=C/c1ccc(OC)cc1 (stereo not drawn)
inactive

// outcome(item) with item = O=C(O)c1cccnc1
inactive

// outcome(item) with item = Nc1ccc(C(=O)O)cc1
inactive

// outcome(item) with item = C/C=C/c1ccc(OC)cc1
inactive

// outcome(item) with item = Cc1cc(=O)n(-c2ccccc2)n1C
inactive

// outcome(item) with item = O=C(O)C(=O)O
inactive

// outcome(item) with item = O=c1ccc2ccccc2o1
inactive

// outcome(item) with item = CC(O)CO (stereo not drawn)
inactive

// outcome(item) with item = CC(O)CN(CCN(CC(C)O)CC(C)O)CC(C)O (stereo not drawn)
inactive

// outcome(item) with item = CC(C)(Oc1ccc(C2CC2(Cl)Cl)cc1)C(=O)O (stereo not drawn)
inactive

// outcome(item) with item = CCCN(CCC)S(=O)(=O)c1ccc(C(=O)O)cc1
inactive

// outcome(item) with item = NS(=O)(=O)c1cc(C(=O)O)c(NCc2ccco2)cc1Cl
inactive

// outcome(item) with item = NNC(=O)c1ccncc1
inactive

// outcome(item) with item = COc1c2occc2cc2ccc(=O)oc12
inactive

// outcome(item) with item = CC(C)[C@@H]1CC[C@@H](C)C[C@H]1O
inactive

// outcome(item) with item = COC(=O)[C@H](Cc1ccccc1)NC(=O)[C@@H](N)CC(=O)O (H-Asp-Phe-OMe)
inactive

// outcome(item) with item = CNC[C@H](O)c1cccc(O)c1
inactive

// outcome(item) with item = O=C1CN(/N=C/c2ccc([N+](=O)[O-])o2)C(=O)N1
active

// outcome(item) with item = CCOc1ccc(NC(=O)CC(C)O)cc1 (stereo not drawn)
inactive

From: PubChem BioAssay (Tox21)
